The values you see were collected from patent US9206128B2.

Reported pIC50 values, EZH2 (Homo sapiens).
pIC50: −log10 of the molar value.

Example cases with answers are listed next.
O=C(NCc1cc2c([nH]c1=O)CCCC2)c1ccc(Oc2ccccc2)cc1 [Compound I-179] ... < 4.30
Cc1cc(C)c(CNC(=O)c2ccc(Oc3ccccc3-c3ccncc3)c(Cl)c2)c(=O)[nH]1 [Compound I-7] ... 5.00 to 6.00
O=C(NCc1cc2c([nH]c1=O)CCC2)c1ccc(Oc2ccccc2)cc1 [Compound I-178] ... 4.30 to 5.00
Cc1cc(C)c(CNC(=O)c2ccc([C@H](C)Oc3ccccc3)cc2C)c(=O)[nH]1 [Compound I-55] ... > 6.00
Cc1cc(C)c(CNC(=O)c2ccc(Oc3cccc(-c4cn[nH]c4)c3C#N)c(Cl)c2)c(=O)[nH]1 [Compound I-5] ... 5.00 to 6.00
Cc1cc(C)c(CNC(=O)c2ccc(C(C)(O)c3ccccc3)cc2)c(=O)[nH]1 (stereo not shown) [Compound I-25] ... 5.00 to 6.00
COc1cc(C)[nH]c(=O)c1CNC(=O)c1ccc(Oc2ccccc2)cc1 [Compound I-195] ... > 6.00
Cc1cc(C)c(CNC(=O)c2ccc(C(C)Oc3ccccc3)c(F)c2)c(=O)[nH]1 (single isomer, unassigned) [Compound I-161] ... > 6.00

Q) Requested read-out pIC50, target or system EZH2 (Homo sapiens), entry CNc1cc(C)[nH]c(=O)c1CNC(=O)c1ccc(Oc2ccccc2)cc1 [Compound I-194]
A) > 6.00

Q) Requested read-out pIC50, target or system EZH2 (Homo sapiens), entry CCc1cccc(Oc2ccc(C(=O)NCc3c(C)cc(C)[nH]c3=O)cc2C)c1C#N [Compound I-4]
A) 5.00 to 6.00

Q) Requested read-out pIC50, target or system EZH2 (Homo sapiens), entry Cc1cc(C)c(CNC(=O)c2ccc(Nc3ccccc3)nc2)c(=O)[nH]1 [Compound I-18]
A) 4.30 to 5.00

Q) Requested read-out pIC50, target or system EZH2 (Homo sapiens), entry Cc1cc(C)c(CNC(=O)c2ccc(Oc3ncccn3)cc2)c(=O)[nH]1 [Compound I-14]
A) < 4.30

Q) Requested read-out pIC50, target or system EZH2 (Homo sapiens), entry Cc1cc(C)c(CNC(=O)c2ccc(Oc3ccccc3)cc2Cl)c(=O)[nH]1 [Compound I-22]
A) > 6.00
